- System: Pyricularia oryzae (DSM62938)
- Test Summary: microbe, parasite or virus in culture
- Format: cell-based
- Test Parameters: DSM62938, 48 h, read-out: MIC values after 48 h
Would you mind telling me the reported MIC of each entry?
Kindly format the answer as number then unit.

Would you mind telling me what MIC value was observed for CCCCC(CCCC(O)C(O)CCCCCCCCCCCCCCC(O)C(=O)O)OC1OCC(O)C(O)C1OC1OCC(O)C(O)C1OC1OC(CO)C(O)C(O)C1O (centres unmarked) [[16], Glykenin DGC or Glykenin DGB] ?
25 µg/mL

Would you mind telling me what MIC value was observed for CCCCC(CCCC(O)C(O)CCCCCCCCCCCCCCC(O)C(=O)O)OC1OCC(O)C(O)C1OC1OCC(O)C(O)C1OC1OC(COC(=O)CC(C)C)C(OC(C)=O)C(O)C1O (centres unmarked) [[13]] ?
6 µg/mL

Would you mind telling me what MIC value was observed for CCCCC(CCCC(O)C(O)CCCCCCCCCCCCCCC(O)C(=O)O)OC1OCC(O)C(O)C1OC1OCC(OC(C)=O)C(O)C1OC1OC(CO)C(O)C(O)C1O (centres unmarked) [[14]] ?
25 µg/mL

Would you mind telling me what MIC value was observed for CCCCC(CCCC(O)C(O)CCCCCCCCCCCCCCC(O)C(=O)O)OC1OCC(O)C(O)C1OC1OCC(O)C(O)C1OC1OC(COC(=O)CC(C)C)C(O)C(O)C1O (centres unmarked) [[12]] ?
25 µg/mL

Would you mind telling me what MIC value was observed for CCCCC(CCCC(O)C(O)CCCCCCCCCCCCCCC(O)C(=O)O)OC1OCC(O)C(O)C1OC1OCC(OC(C)=O)C(O)C1OC1OC(COC(=O)CC(C)C)C(O)C(O)C1O (centres unmarked) [[1]] ?
6 µg/mL

----------
Would you mind telling me the reported MIC of each entry?
- Test system: Dekkera bruxellensis (DSM70726)
- Test Summary: MIC determination in microtiter plates (non-pathogenic microorganisms)
- Type: cell-based
- Test Parameters: Brettanomyces bruxellensis, 48 h, read-out: MIC values after 48 h

Would you mind telling me what MIC value was observed for CCCCC(CCCC(O)C(O)CCCCCCCCCCCCCCC(O)C(=O)O)OC1OCC(O)C(O)C1OC1OCC(O)C(O)C1OC1OC(COC(=O)CC(C)C)C(O)C(O)C1O (centres unmarked) [[12]] ?
6.3 µg/mL

Would you mind telling me what MIC value was observed for CCCCC(CCCC(O)C(O)CCCCCCCCCCCCCCC(O)C(=O)O)OC1OCC(O)C(O)C1OC1OCC(OC(C)=O)C(O)C1OC1OC(COC(=O)CC(C)C)C(O)C(O)C1O (centres unmarked) [[1]] ?
6.3 µg/mL

Would you mind telling me what MIC value was observed for CCCCC(CCCC(O)C(O)CCCCCCCCCCCCCCC(O)C(=O)O)OC1OCC(O)C(O)C1OC1OCC(O)C(O)C1OC1OC(CO)C(O)C(O)C1O (centres unmarked) [[16], Glykenin DGC or Glykenin DGB] ?
> 100 µg/mL

Would you mind telling me what MIC value was observed for CCCCC(CCCC(O)C(O)CCCCCCCCCCCCCCC(O)C(=O)O)OC1OCC(O)C(O)C1OC1OCC(O)C(O)C1OC1OC(COC(=O)CC(C)C)C(OC(C)=O)C(O)C1O (centres unmarked) [[13]] ?
6.3 µg/mL

Would you mind telling me what MIC value was observed for CCCCC(CCCC(O)C(O)CCCCCCCCCCCCCCC(O)C(=O)O)OC1OCC(O)C(O)C1OC1OCC(OC(C)=O)C(O)C1OC1OC(CO)C(O)C(O)C1O (centres unmarked) [[14]] ?
50 µg/mL

Reference source for all entries: patent US11596150B2
